Entry source: paper PMC9170038

target: MS2 coat protein, dlFG mutant (Escherichia phage MS2, UniProt P03612, del68-81insG); assay: 4 mM Mg2+; no ligand; RNA-MaP array; 100 mM Tris-HCl pH 7.5, 80 mM KCl, 4 mM MgCl2, 0.1 mg/mL BSA, 1 mM DTT, 0.01 mg/mL yeast tRNA, 0.01% Tween-20; protein 1.5 nM to 3 uM; 37 C (Table S3); conditions: chain copies: 2; label: tethered by stalled RNA polymerase
# reported Kd; entries follow
# unit: nM | format: bare number

Here is how some binders turned out for Kd.
[
  {
    "Binder": "Eterna 6461246 (Same State NG 1) (ssRNA) RNA: GUUUUCGCAUGAGGAUAUGCUCGCAUUUUAAGAGCAGAAGGUAUGUCUUUAGACAUGAGGAUCACCCAUGUAUUUAUCAUUGAA",
    "Kd (nM)": 162
  },
  {
    "Binder": "Eterna 6387857 (Small Loop Same State NG 3) (ssRNA) RNA: AAUCUUUUUAUGGGAUUACAAUAUGAGGAUAUCAUUCAUUUAUACAUGAGGAUCACCCAUGUUACUGAGAAGGCAUAUAUAAUA",
    "Kd (nM)": 28.4
  },
  {
    "Binder": "Eterna 6430181 (Small Loop Exclusion NG 3) (ssRNA) RNA: UAUAGCCCUAGUUCGAGUGUCUAGGAGGAUAUACAGAGGCAGCCAAAGACAUGAGGAUCACCCAUGUAGAAGGCCUAGACGGUA",
    "Kd (nM)": 13.6
  }
]

Shifting focus to the binder that follows.
Entry under test: Eterna 7646225 (Same State - Tryptophan A) (ssRNA) RNA: AAUAACAUGAGGAUCACCCAUGUAAGUAAACGAGGACCGGUACGGCCGCCACUCGAAUAAAUAAAGUACCGGUAAGAUCCAUAGA . Its Kd was 21.3
